SYSTEM UNDER TEST: Protein deacetylase HDAC6 (Homo sapiens)
Sequence (Q9UBN7 whole entry): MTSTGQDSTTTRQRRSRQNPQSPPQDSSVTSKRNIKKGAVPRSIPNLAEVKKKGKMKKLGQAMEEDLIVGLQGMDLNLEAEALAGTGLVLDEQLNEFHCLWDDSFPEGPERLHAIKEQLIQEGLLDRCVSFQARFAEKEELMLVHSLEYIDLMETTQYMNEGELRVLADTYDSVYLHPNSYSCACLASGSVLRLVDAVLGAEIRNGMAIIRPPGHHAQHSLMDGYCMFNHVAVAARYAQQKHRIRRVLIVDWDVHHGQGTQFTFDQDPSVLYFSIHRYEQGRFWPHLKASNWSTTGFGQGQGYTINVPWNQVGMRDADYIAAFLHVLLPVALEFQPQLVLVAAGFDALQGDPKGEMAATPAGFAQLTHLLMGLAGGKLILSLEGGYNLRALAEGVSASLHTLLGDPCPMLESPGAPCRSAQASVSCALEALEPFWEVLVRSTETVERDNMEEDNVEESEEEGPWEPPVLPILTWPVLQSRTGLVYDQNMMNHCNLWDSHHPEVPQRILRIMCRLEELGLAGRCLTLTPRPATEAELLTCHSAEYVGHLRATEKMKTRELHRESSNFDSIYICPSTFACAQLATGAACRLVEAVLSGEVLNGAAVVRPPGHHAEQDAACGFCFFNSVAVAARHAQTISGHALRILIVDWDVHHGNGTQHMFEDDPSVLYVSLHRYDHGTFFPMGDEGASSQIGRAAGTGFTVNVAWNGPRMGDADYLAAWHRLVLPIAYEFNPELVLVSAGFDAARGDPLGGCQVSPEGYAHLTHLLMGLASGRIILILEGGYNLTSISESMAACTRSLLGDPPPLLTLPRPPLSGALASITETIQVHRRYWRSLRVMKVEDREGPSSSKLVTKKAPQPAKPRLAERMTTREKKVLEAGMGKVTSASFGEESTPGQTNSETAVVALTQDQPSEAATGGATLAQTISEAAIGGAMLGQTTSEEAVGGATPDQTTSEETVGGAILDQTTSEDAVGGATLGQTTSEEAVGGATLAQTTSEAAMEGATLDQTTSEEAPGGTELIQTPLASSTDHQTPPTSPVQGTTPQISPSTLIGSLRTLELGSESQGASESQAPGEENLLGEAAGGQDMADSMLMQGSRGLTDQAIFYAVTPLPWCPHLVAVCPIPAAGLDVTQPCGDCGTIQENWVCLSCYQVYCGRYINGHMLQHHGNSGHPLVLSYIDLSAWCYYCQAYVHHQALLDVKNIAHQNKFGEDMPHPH
METHOD NOTES: Inhibition of HDAC6 (unknown origin) expressed in human HEK-Freestyle cells using Boc-Lys(Ac) as substrate by fluorogenic assay
pIC50: −log10 of the molar value.
OUTCOME MEASURE: pIC50

{"columns": ["LINE NOTATION", "SYSTEM UNDER TEST", "EXPERIMENTAL VALUE"],
 "data": [
  ["CCCN(CCC)C[C@@H](C)NC(=O)c1ccc(-c2noc(C(F)(F)F)n2)cc1", "Protein deacetylase HDAC6 (Homo sapiens)", 5.19]
]}

[P] C[C@H](CN1CCC[C@@H]1C)NC(=O)c1ccc(-c2noc(C(F)(F)F)n2)cc1
[Q] O=C(NCCN1CCCC1)c1ccc(-c2noc(C(F)(F)F)n2)cc1
Q. Pick one: P or Q . Which has the bigger pIC50 number? Please reply using the label of the selected record.
A. Q

====

SYSTEM UNDER TEST: Cytochrome P450 3A4 (Homo sapiens)
METHOD NOTES: Inhibition of CYP3A4 in human liver microsomes using midazolam as substrate incubated for 15 mins by LC-MS/MS analysis
Format: ADME
pIC50: −log10 of the molar value.
OUTCOME MEASURE: pIC50

Q. Fill in: pIC50 of C[C@H](CN1CCC[C@@H]1C)NC(=O)c1ccc(-c2noc(C(F)(F)F)n2)cc1 is ___
A. < 4.30

====

METHOD NOTES: Oral bioavailability in C57BL/6J mouse at 11.5 mg/kg administered via gavage by LC-MS/MS analysis
Format: ADME, organism-based
DETAILS: in vivo
OUTCOME MEASURE: bioavailability (%)
Give your result in % as a bare value.

Q. Fill in: bioavailability of C[C@H](CN1CCC[C@@H]1C)NC(=O)c1ccc(-c2noc(C(F)(F)F)n2)cc1 is ___
A. 100

====

METHOD NOTES: Selectivity index, ratio of IC50 for Class 1/2b HDAC in human Jurkat E6.1 cells using Boc-Lys-(Ac)-AMC as substrate to IC50 for Class 2A HDAC4 in human Jurkat E6.1 cells using Boc-Lys-(TFA)-AMC as substrate by fluorogenic assay
OUTCOME MEASURE: Ratio IC50
Number only, no unit.

Completed entries (count: 2):
{"columns": ["LINE NOTATION", "Ratio IC50"],
 "data": [
  ["C[C@@H](CN1CCCC1)NC(=O)c1ccc(-c2noc(C(F)(F)F)n2)cc1", 59],
  ["C[C@H](CN1CCC[C@H](OC(F)F)C1)NC(=O)c1ccc(-c2noc(C(F)(F)F)n2)cc1", 150]
]}

Q. Fill in: Ratio IC50 of C[C@H](CN1CCCC1)NC(=O)c1ccc(-c2noc(C(F)(F)F)n2)cc1 is ___
A. 143

Q. Fill in: Ratio IC50 of CC(C)(CN1CCCC1)NC(=O)c1ccc(-c2noc(C(F)(F)F)n2)cc1 is ___
A. 39

Q. Fill in: Ratio IC50 of C[C@H](CN1CCC[C@@H](OC(F)F)C1)NC(=O)c1ccc(-c2noc(C(F)(F)F)n2)cc1 is ___
A. 60

Q. Fill in: Ratio IC50 of C[C@H](CN1CCC(F)CC1)NC(=O)c1ccc(-c2noc(C(F)(F)F)n2)cc1 is ___
A. 103

====

SYSTEM UNDER TEST: Cytochrome P450 2D6 (Homo sapiens, UniProt P10635)
Sequence (P10635 whole entry): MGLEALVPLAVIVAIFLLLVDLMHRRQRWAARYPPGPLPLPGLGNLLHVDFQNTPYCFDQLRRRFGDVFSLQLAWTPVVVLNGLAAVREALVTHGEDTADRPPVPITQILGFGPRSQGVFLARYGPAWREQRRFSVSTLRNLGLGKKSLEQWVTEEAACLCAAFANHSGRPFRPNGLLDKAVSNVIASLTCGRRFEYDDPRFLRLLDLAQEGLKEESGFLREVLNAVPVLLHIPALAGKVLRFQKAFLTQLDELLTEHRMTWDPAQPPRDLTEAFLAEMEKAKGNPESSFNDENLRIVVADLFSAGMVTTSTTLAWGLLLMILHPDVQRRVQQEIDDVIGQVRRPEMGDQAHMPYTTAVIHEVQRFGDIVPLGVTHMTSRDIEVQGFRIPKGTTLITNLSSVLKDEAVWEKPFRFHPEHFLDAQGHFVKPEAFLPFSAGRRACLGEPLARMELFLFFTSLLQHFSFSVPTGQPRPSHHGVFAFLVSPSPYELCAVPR
OUTCOME MEASURE: IC50

Q. Fill in: IC50 of C[C@H](CN1CCC[C@@H]1C)NC(=O)c1ccc(-c2noc(C(F)(F)F)n2)cc1 is ___
A. > 50 µM

====

SYSTEM UNDER TEST: Histone deacetylase 1 (Homo sapiens)
Sequence (Q13547 whole entry): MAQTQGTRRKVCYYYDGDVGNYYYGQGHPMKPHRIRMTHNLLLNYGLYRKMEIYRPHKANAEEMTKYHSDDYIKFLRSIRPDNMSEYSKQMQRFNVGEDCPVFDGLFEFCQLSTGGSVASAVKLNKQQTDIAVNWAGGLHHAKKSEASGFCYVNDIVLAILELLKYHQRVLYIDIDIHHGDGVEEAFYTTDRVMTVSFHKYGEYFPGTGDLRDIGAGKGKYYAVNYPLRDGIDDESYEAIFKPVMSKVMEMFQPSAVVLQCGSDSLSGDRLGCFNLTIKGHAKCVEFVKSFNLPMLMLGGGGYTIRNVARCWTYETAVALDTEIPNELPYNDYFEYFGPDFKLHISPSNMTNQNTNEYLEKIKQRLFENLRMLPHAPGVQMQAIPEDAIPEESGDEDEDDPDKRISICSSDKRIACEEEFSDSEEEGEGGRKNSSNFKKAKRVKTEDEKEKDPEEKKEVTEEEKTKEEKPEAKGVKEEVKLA
pIC50: −log10 of the molar value.
OUTCOME MEASURE: pIC50

{"columns": ["LINE NOTATION", "EXPERIMENTAL VALUE"],
 "data": [
  ["C[C@H](CN1CCC[C@@H]1C)NC(=O)c1ccc(-c2noc(C(F)(F)F)n2)cc1", 4.77]
]}

[1] O=C(NCCN1CCCC1)c1ccc(-c2noc(C(F)(F)F)n2)cc1
[2] CCCN(CCC)C[C@@H](C)NC(=O)c1ccc(-c2noc(C(F)(F)F)n2)cc1
Q. Pick one: 1 or 2 . Which has the bigger pIC50 number? Please reply using the label of the selected record.
A. 2
(2: 5.22, 1: 4.89)

====

SYSTEM UNDER TEST: Cytochrome P450 3A4 (Homo sapiens, UniProt P08684)
Sequence (P08684 whole entry): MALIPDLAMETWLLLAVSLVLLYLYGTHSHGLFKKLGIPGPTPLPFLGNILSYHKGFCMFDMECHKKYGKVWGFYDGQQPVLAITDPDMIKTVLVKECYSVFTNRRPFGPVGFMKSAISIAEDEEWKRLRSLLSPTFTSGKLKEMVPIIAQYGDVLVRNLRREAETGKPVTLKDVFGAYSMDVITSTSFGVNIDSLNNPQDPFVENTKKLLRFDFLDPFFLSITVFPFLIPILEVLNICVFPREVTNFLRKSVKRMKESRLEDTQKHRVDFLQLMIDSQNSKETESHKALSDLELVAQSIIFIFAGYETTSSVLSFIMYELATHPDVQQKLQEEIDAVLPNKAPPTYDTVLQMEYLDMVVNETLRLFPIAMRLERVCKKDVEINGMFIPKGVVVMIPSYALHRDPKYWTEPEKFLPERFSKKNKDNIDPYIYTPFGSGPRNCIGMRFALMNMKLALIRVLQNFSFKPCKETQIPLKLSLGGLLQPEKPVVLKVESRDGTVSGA
METHOD NOTES: Inhibition of CYP3A4 in human liver microsomes using testosterone as substrate incubated for 30 mins by LC-MS/MS analysis
Type: ADME
OUTCOME MEASURE: IC50

Q. Fill in: IC50 of C[C@H](CN1CCC[C@@H]1C)NC(=O)c1ccc(-c2noc(C(F)(F)F)n2)cc1 is ___
A. > 50 µM

====

METHOD NOTES: Intrinsic Clearance in mouse liver microsomes
Assay type: ADME, Microsome
DETAILS: read-out: CLH
OUTCOME MEASURE: CLint scaled (mL/min/kg)

Completed entries (count: 3):
{"columns": ["LINE NOTATION", "OUTCOME MEASURE", "EXPERIMENTAL VALUE"],
 "data": [
  ["C[C@H](CN1CCC[C@H](OC(F)F)C1)NC(=O)c1ccc(-c2noc(C(F)(F)F)n2)cc1", "CLint scaled", 757],
  ["C[C@H](CN1CCCCC1)NC(=O)c1ccc(-c2noc(C(F)(F)F)n2)cc1", "CLint scaled", 66],
  ["C[C@H](CN1CCC[C@@H](OC(F)F)C1)NC(=O)c1ccc(-c2noc(C(F)(F)F)n2)cc1", "CLint scaled", 661]
]}

[A] C[C@H](CN1CCCC1)NC(=O)c1ccc(-c2noc(C(F)(F)F)n2)cc1
[B] CCCN(CCC)C[C@@H](C)NC(=O)c1ccc(-c2noc(C(F)(F)F)n2)cc1
Q. Pick one: A or B . Which has the bigger CLint scaled number? Please reply using the label of the selected record.
A. B
(B: 834 mL/min/kg, A: 65 mL/min/kg)

====

Ratio IC50 listing for selected compounds.
METHOD NOTES: Selectivity index, ratio of IC50 for Class 1/2b HDAC in human Jurkat E6.1 cells using Boc-Lys-(Ac)-AMC as substrate to IC50 for Class 2A HDAC4 in human Jurkat E6.1 cells using Boc-Lys-(TFA)-AMC as substrate by fluorogenic assay
Number only, no unit.

Completed entries (count: 3):
{"columns": ["LINE NOTATION", "EXPERIMENTAL VALUE"],
 "data": [
  ["C[C@H](CN1CCCCC1)NC(=O)c1ccc(-c2noc(C(F)(F)F)n2)cc1", 129],
  ["O=C(NC1(CN2CCCC2)CC1)c1ccc(-c2noc(C(F)(F)F)n2)cc1", 36],
  ["C[C@H](CN1CCCC(C)(C)C1)NC(=O)c1ccc(-c2noc(C(F)(F)F)n2)cc1", 52]
]}

Now turn to the next compound.
Q. Fill in: Ratio IC50 of C[C@H](CN1CCCCCC1)NC(=O)c1ccc(-c2noc(C(F)(F)F)n2)cc1 is ___
A. 57

====

SYSTEM UNDER TEST: UniProt P08173
Sequence (P08173 whole entry): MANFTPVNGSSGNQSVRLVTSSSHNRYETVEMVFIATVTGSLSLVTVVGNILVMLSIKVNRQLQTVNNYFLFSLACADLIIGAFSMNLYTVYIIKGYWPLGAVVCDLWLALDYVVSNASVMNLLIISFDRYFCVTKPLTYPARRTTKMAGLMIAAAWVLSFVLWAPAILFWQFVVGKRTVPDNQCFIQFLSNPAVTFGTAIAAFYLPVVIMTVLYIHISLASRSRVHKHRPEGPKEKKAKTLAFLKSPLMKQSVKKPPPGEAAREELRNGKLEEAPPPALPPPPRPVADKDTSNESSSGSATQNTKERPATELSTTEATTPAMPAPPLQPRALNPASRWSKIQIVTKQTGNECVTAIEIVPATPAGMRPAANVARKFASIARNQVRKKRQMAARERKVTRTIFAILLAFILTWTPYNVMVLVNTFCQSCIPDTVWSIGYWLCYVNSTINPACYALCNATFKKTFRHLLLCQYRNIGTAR
METHOD NOTES: Displacement of [3H]4-DAMP from human recombinant M4 receptor incubated for 1 hr by radiometric scintillation counting analysis
pKd: −log10 of the molar value.
OUTCOME MEASURE: pKd

Q. Fill in: pKd of C[C@H](CN1CCC[C@@H]1C)NC(=O)c1ccc(-c2noc(C(F)(F)F)n2)cc1 is ___
A. < 5.30

====

METHOD NOTES: Tmax in C57BL/6J mouse blood at 11.5 mg/kg, po administered via gavage by LC-MS/MS analysis
Format: ADME, organism-based
OUTCOME MEASURE: Tmax (min)
Give your result in min as a bare value.

Q. Fill in: Tmax of C[C@H](CN1CCC[C@@H]1C)NC(=O)c1ccc(-c2noc(C(F)(F)F)n2)cc1 is ___
A. 30

====

METHOD NOTES: Unbound fraction in mouse brain
Type: ADME, tissue-based
OUTCOME MEASURE: fraction unbound
Number only, no unit.

Q. Fill in: fraction unbound of C[C@H](CN1CCC[C@@H]1C)NC(=O)c1ccc(-c2noc(C(F)(F)F)n2)cc1 is ___
A. 0.17

====

SYSTEM UNDER TEST: UniProtKB P56524
Sequence (P56524 whole entry): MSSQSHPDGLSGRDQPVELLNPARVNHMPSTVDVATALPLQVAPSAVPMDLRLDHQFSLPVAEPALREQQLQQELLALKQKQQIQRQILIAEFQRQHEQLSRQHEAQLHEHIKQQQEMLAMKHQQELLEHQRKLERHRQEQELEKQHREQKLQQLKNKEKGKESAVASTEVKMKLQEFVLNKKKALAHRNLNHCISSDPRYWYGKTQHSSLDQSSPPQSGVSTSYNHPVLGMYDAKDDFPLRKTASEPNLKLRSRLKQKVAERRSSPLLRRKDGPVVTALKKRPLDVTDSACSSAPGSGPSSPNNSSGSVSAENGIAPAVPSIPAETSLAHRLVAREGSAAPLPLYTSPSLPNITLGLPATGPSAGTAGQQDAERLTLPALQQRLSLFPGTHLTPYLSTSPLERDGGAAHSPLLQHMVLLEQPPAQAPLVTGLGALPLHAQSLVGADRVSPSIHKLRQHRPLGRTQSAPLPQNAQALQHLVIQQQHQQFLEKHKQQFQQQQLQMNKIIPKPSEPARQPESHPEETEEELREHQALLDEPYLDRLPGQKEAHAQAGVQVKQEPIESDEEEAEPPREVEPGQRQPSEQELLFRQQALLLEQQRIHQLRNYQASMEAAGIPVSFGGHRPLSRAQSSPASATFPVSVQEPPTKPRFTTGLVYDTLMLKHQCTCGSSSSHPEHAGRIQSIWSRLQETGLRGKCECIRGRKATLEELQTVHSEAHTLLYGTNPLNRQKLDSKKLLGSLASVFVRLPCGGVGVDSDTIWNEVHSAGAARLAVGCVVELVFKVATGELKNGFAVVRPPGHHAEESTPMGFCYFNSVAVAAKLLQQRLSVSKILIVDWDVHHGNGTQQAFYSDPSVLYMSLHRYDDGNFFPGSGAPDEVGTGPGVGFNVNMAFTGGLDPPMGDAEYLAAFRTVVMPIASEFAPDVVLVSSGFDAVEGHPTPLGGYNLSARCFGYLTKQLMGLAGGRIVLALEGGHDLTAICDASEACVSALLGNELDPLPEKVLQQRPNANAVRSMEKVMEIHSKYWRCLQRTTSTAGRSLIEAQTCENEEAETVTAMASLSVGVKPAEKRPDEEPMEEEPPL
METHOD NOTES: Inhibition of HDAC4 (unknown origin) using Boc Lys(TFA) as substrate by fluorogenic assay
OUTCOME MEASURE: IC50 (nM)

[1] C[C@@H](CN1CCCC1)NC(=O)c1ccc(-c2noc(C(F)(F)F)n2)cc1
[2] CC(C)(CN1CCCC1)NC(=O)c1ccc(-c2noc(C(F)(F)F)n2)cc1
[3] C[C@H](CN1CCCC(C)(C)C1)NC(=O)c1ccc(-c2noc(C(F)(F)F)n2)cc1
[4] O=C(NCCN1CCCC1)c1ccc(-c2noc(C(F)(F)F)n2)cc1
[5] C[C@H](CN1CCCC1)NC(=O)c1ccc(-c2noc(C(F)(F)F)n2)cc1
Q. Hello, I need these entries ordered by IC50, highest reading first. Thanks! The response must list the labels following the requested ordering.
A. 2, 1, 4, 5, 3
(2: 280 nM, 1: 50 nM, 4: 30 nM, 5: 10 nM, 3: 2 nM)

[P] C[C@H](CN1CCC[C@H]1C)NC(=O)c1ccc(-c2noc(C(F)(F)F)n2)cc1
[Q] O=C(NC1(CN2CCCC2)CC1)c1ccc(-c2noc(C(F)(F)F)n2)cc1
Q. Of the pair P and Q , name the member with the lesser recorded IC50. Please reply using the label of the selected record.
A. Q
(Q: 40 nM, P: 70 nM)

meta.source: ChEMBL document CHEMBL4680373
